# Test system: P. falciparum isolates
# assay_text: 48 hour parasite lactate dehydrogenase (48 hr pLDH) drug sensitivity assay after transport from the field on ice in BAM
# Type: cell-based
# assay_context: Plasmodium falciparum, 24 h, isolate E107, 1 day in transit
pIC50: −log10 of the molar value.
measured_property: pIC50

[[record]]
compound = "CCN(CC)CCCC(C)Nc1ccnc2cc(Cl)ccc12 (stereo not shown)"
assay_system = "P. falciparum isolates"
measured_property = "pIC50"
value_observed = 6.26


====

# Test system: P. falciparum isolates
# assay_text: 48 hour parasite lactate dehydrogenase (48 hr pLDH) drug sensitivity assay after transport from the field on ice in BAM
# Format: cell-based
# assay_context: Plasmodium falciparum, 24 h, isolate J107, 1 day in transit; read-out: IC50
measured_property: IC50

[[record]]
smiles_input = "CCN(CC)Cc1cc(Nc2ccnc3cc(Cl)ccc23)ccc1O"
measured_property = "IC50"
value_observed = "12.6 nM"

[[record]]
smiles_input = "C=C[C@H]1C[N@@]2CC[C@H]1C[C@H]2[C@H](O)c1ccnc2ccc(OC)cc12"
measured_property = "IC50"
value_observed = "55.4 nM"


====

# Test system: P. falciparum isolates
# assay_text: 48 hour parasite lactate dehydrogenase (48 hr pLDH) drug sensitivity assay after transport from the field on ice in BAM
# Assay type: cell-based
# assay_context: Plasmodium falciparum, 24 h, isolate F107, 1 day in transit; read-out: IC50
measured_property: IC50 (nM)

[[record]]
smiles_input = "CCN(CC)Cc1cc(Nc2ccnc3cc(Cl)ccc23)ccc1O"
assay_system = "P. falciparum isolates"
value_observed = 23.6


====

# System: P. falciparum isolates
# assay_text: 48 hour parasite lactate dehydrogenase (48 hr pLDH) drug sensitivity assay after transport from the field on ice in BAM
# Format: cell-based
# assay_context: Plasmodium falciparum, 48 h, isolate R107, 2 days in transit
pIC50: −log10 of the molar value.
measured_property: pIC50

[[record]]
compound = "CCN(CC)CCCC(C)Nc1ccnc2cc(Cl)ccc12 (stereo not shown)"
value_observed = 7.10


====

# System: P. falciparum isolates
# assay_text: 48 hour parasite lactate dehydrogenase (48 hr pLDH) drug sensitivity assay after transport from the field on ice in BAM
# Assay type: cell-based
# assay_context: Plasmodium falciparum, 24 h, isolate A67, 1 day in transit
pIC50: −log10 of the molar value.
measured_property: pIC50

[[record]]
compound = "CCN(CC)CCCC(C)Nc1ccnc2cc(Cl)ccc12 (stereo not shown) [Chloroquine, chloroquine]"
measured_property = "pIC50"
value_observed = 6.72


====

# System: P. falciparum isolates
# assay_text: 48 hour parasite lactate dehydrogenase (48 hr pLDH) drug sensitivity assay after transport from the field on ice in BAM
# Type: cell-based
# assay_context: Plasmodium falciparum, 24 h, isolate B236, 1 day in transit; read-out: IC50
measured_property: IC50 (µM)

[[record]]
smiles_input = "CCN(CC)Cc1cc(Nc2ccnc3cc(Cl)ccc23)ccc1O"
assay_system = "P. falciparum isolates"
measured_property = "IC50"
value_observed = 0.0288

[[record]]
smiles_input = "C=C[C@H]1C[N@@]2CC[C@H]1C[C@H]2[C@H](O)c1ccnc2ccc(OC)cc12"
assay_system = "P. falciparum isolates"
measured_property = "IC50"
value_observed = 0.183


====

# Test system: P. falciparum isolates
# assay_text: 48 hour parasite lactate dehydrogenase (48 hr pLDH) drug sensitivity assay after transport from the field on ice in BAM
# Assay type: cell-based
# assay_context: Plasmodium falciparum, 24 h, isolate K107, 1 day in transit; read-out: IC50
pIC50: −log10 of the molar value.
Each entry below carries its recorded pIC50.
measured_property: pIC50

[[record]]
molecule = "CCN(CC)Cc1cc(Nc2ccnc3cc(Cl)ccc23)ccc1O [Amodiaquine, amodiaquine]"
assay_system = "P. falciparum isolates"
value_observed = 7.45

[[record]]
molecule = "C=C[C@H]1C[N@@]2CC[C@H]1C[C@H]2[C@H](O)c1ccnc2ccc(OC)cc12 [Quinine, quinine]"
assay_system = "P. falciparum isolates"
value_observed = 6.45


====

# Test system: P. falciparum isolates
# assay_text: 48 hour parasite lactate dehydrogenase (48 hr pLDH) drug sensitivity assay after transport from the field on ice in BAM
# Type: cell-based
# assay_context: Plasmodium falciparum, 24 h, isolate G17, 1 day in transit; read-out: IC50
Each entry below carries its recorded IC50.
measured_property: IC50 (nM)

[[record]]
smiles_input = "CCN(CC)Cc1cc(Nc2ccnc3cc(Cl)ccc23)ccc1O"
assay_system = "P. falciparum isolates"
measured_property = "IC50"
value_observed = 40.8

[[record]]
smiles_input = "C=C[C@H]1C[N@@]2CC[C@H]1C[C@H]2[C@H](O)c1ccnc2ccc(OC)cc12"
assay_system = "P. falciparum isolates"
measured_property = "IC50"
value_observed = 143


====

# System: P. falciparum isolates
# assay_text: 48 hour parasite lactate dehydrogenase (48 hr pLDH) drug sensitivity assay after transport from the field on ice in BAM
# Assay type: cell-based
# assay_context: Plasmodium falciparum, 24 h, isolate 1236, 1 day in transit; read-out: IC50
Each entry below carries its recorded IC50.
measured_property: IC50 (nM)

[[record]]
smiles_input = "C=C[C@H]1C[N@@]2CC[C@H]1C[C@H]2[C@H](O)c1ccnc2ccc(OC)cc12"
assay_system = "P. falciparum isolates"
measured_property = "IC50"
unit_symbol = "nM"
value_observed = 0.04

[[record]]
smiles_input = "CCN(CC)Cc1cc(Nc2ccnc3cc(Cl)ccc23)ccc1O"
assay_system = "P. falciparum isolates"
measured_property = "IC50"
unit_symbol = "nM"
value_observed = 26.8


====

Each entry below carries its recorded pIC50.
# Test system: P. falciparum isolates
# assay_text: 48 hour parasite lactate dehydrogenase (48 hr pLDH) drug sensitivity assay after transport from the field on ice in BAM
# Format: cell-based
# assay_context: Plasmodium falciparum, 24 h, isolate C67, 1 day in transit; read-out: IC50
pIC50: −log10 of the molar value.
measured_property: pIC50

[[record]]
smiles_input = "CCN(CC)Cc1cc(Nc2ccnc3cc(Cl)ccc23)ccc1O"
measured_property = "pIC50"
value_observed = 6.93

[[record]]
smiles_input = "C=C[C@H]1C[N@@]2CC[C@H]1C[C@H]2[C@H](O)c1ccnc2ccc(OC)cc12"
measured_property = "pIC50"
value_observed = 6.87


====

# Test system: P. falciparum isolates
# assay_text: 48 hour parasite lactate dehydrogenase (48 hr pLDH) drug sensitivity assay after transport from the field on ice in BAM
# Format: cell-based
# assay_context: Plasmodium falciparum, 24 h, isolate E67, 1 day in transit; read-out: IC50
# Procedure: Malaria parasites fail to thrive after removal from the patient. They can be preserved either by cryopreservation in liquid nitrogen or storage at −70° C. These techniques used for long term storage are too labor-intensive and expensive for routine use. […] Transit time can vary between a few hours to less than a week. Because of the clinical demand for such a service, BAM was evaluated in the field as a transport medium for malaria parasites.
pIC50: −log10 of the molar value.
measured_property: pIC50

[[record]]
smiles_input = "C=C[C@H]1C[N@@]2CC[C@H]1C[C@H]2[C@H](O)c1ccnc2ccc(OC)cc12"
measured_property = "pIC50"
value_observed = 6.97


====

# System: P. falciparum isolates
# assay_text: 48 hour parasite lactate dehydrogenase (48 hr pLDH) drug sensitivity assay after transport from the field on ice in BAM
# Type: cell-based
# assay_context: Plasmodium falciparum, 24 h, isolate A67, 1 day in transit; read-out: IC50
pIC50: −log10 of the molar value.
measured_property: pIC50

[[record]]
smiles_input = "CCN(CC)Cc1cc(Nc2ccnc3cc(Cl)ccc23)ccc1O"
value_observed = 7.42


====

# Test system: P. falciparum isolates
# assay_text: 48 hour parasite lactate dehydrogenase (48 hr pLDH) drug sensitivity assay after transport from the field on ice in BAM
# Assay type: cell-based
# assay_context: Plasmodium falciparum, 24 h, isolate KilH, 1 day in transit; read-out: IC50
Each entry below carries its recorded IC50.
measured_property: IC50 (nM)

[[record]]
smiles_input = "C=C[C@H]1C[N@@]2CC[C@H]1C[C@H]2[C@H](O)c1ccnc2ccc(OC)cc12"
value_observed = 378

[[record]]
smiles_input = "CCN(CC)Cc1cc(Nc2ccnc3cc(Cl)ccc23)ccc1O"
value_observed = 125


====

# System: P. falciparum isolates
# assay_text: 48 hour parasite lactate dehydrogenase (48 hr pLDH) drug sensitivity assay after transport from the field on ice in BAM
# Type: cell-based
# assay_context: Plasmodium falciparum, 24 h, isolate H107, 1 day in transit; read-out: IC50
pIC50: −log10 of the molar value.
measured_property: pIC50

[[record]]
smiles_input = "C=C[C@H]1C[N@@]2CC[C@H]1C[C@H]2[C@H](O)c1ccnc2ccc(OC)cc12"
assay_system = "P. falciparum isolates"
measured_property = "pIC50"
value_observed = 7.55

[[record]]
smiles_input = "CCN(CC)Cc1cc(Nc2ccnc3cc(Cl)ccc23)ccc1O"
assay_system = "P. falciparum isolates"
measured_property = "pIC50"
value_observed = 7.00

